# credit: patent US20240116985A1

Molecular target: full-length beta-Catenin (Uniprot ID P35222) (Homo sapiens (Human)) (UniProt P35222)
Sequence (P35222 2-781 limits assumed): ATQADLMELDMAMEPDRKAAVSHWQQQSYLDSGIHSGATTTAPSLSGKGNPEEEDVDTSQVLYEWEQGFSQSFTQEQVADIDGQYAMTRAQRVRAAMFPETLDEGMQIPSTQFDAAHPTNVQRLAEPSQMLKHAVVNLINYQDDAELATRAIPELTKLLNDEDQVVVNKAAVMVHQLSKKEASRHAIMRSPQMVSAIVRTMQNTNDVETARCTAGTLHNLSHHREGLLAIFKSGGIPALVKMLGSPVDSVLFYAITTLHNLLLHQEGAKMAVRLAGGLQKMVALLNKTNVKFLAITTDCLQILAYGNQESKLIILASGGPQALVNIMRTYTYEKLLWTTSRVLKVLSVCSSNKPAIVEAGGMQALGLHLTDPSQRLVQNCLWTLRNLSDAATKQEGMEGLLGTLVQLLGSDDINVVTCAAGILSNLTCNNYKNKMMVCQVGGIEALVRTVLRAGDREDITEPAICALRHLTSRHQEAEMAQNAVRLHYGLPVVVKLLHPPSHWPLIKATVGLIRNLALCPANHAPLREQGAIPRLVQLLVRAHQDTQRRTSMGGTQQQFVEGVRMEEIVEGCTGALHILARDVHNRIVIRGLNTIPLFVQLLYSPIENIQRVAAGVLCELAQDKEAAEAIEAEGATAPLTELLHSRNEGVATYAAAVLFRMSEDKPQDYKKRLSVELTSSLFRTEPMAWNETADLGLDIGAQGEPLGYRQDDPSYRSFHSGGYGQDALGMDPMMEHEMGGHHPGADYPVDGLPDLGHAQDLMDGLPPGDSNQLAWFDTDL
Assay: fluorescence polarization competition; 10 nM full-length beta-catenin + 10 nM 5FAM-TCF4(10-53) as competitor probe; peptide titrated
Starred links: 1 amine or outer side, 2 acyl side, 3 side chain; linkers in the order of their positions; H or OH if unused. Positions of bridges follow the written chain, without caps; N, C: chain ends. Non-standard residues stand in square brackets, D forms with d. Primed or numbered codes have the meaning given here. PyrS2″ = (S)-3-amino-1-((pent-4-en-1-yloxy)carbonyl)pyrrolidine-3-carboxylic acid (stapling residue), C=CCCCOC(=O)N1CC[C@@](N[*:1])(C(=O)[*:2])C1; B5(4) = 2,2-bis(4-pentenyl)glycine = 2-amino-2-(pent-4-en-1-yl)hept-6-enoic acid (stitching residue), C=CCCCC(CCCC=C)(N[*:1])C(=O)[*:2]; B5(5) = 2,2-bis(4-pentenyl)glycine, 2-amino-2-(pent-4-en-1-yl)hept-6-enoic acid (stitching residue), C=CCCCC(CCCC=C)(N[*:1])C(=O)[*:2]; TfeGA = (S)-2-amino-3-((carboxymethyl)(2,2,2-trifluoroethyl)amino)propanoic acid, O=C([C@H](CN(CC(=O)[*:3])CC(F)(F)F)N[*:1])[*:2]; (EtSSpy)AspE = (S)-2-amino-4-oxo-4-(2-(pyridin-2-yldisulfaneyl)ethoxy)butanoic acid, O=C(C[C@H](N[*:1])C(=O)[*:2])OCCSSc1ccccn1; PyrS2 = (S)-3-amino-1-((pent-4-en-1-yloxy)carbonyl)pyrrolidine-3-carboxylic acid, C=CCCCOC(=O)N1CC[C@@](N[*:1])(C(=O)[*:2])C1; B5 = 2-amino-2-(pent-4-en-1-yl)hept-6-enoic acid, C=CCCCC(CCCC=C)(N[*:1])C(=O)[*:2]; Phe(2-Cl) = N[C@@H](Cc1ccccc1Cl)C(=O)O; Bta = N[C@@H](Cc1csc2ccccc12)C(=O)O; αAllylPro = C=CC[C@@]1(C(=O)O)CCCN1; tBuAla = CC(C)(C)C[C@H](N)C(=O)O; 3Thi = N[C@@H](Cc1ccsc1)C(=O)O
Provide the reported IC50 of each item.
Answers are plain numbers, in nM.

Solved entries (count: 4):
Ac-[αAllylPro]D[tBuAla][B5(4)]NTAAFN[PyrS2″][3Thi][Bta]R-NH2 (staple 1-4, 4-11) [I-1743] = 469
Ac-[αAllylPro]D[tBuAla][B5(4)]NTAAFN[PyrS2″][3Thi][Bta]-NH2 (staple 1-4, 4-11) [I-1742] = 867
Ac-[αAllylPro]D[tBuAla][B5(5)]D[TfeGA]AAFL[PyrS2″][3Thi][Bta]L-NH2 (staple 1-4, 4-11) [I-1747] = 187
Ac-[αAllylPro]D[tBuAla][B5(4)]NTAAFN[PyrS2″][3Thi][Bta]T-NH2 (staple 1-4, 4-11) [I-1745] = 402

Request: Give recorded IC50. Ac-[αAllylPro][(EtSSpy)AspE][tBuAla][B5]DDAAFN[PyrS2][Phe(2-Cl)][Bta]Q-NH2 (staple 1-4, 4-11; also: earlier-eluting isomer) [I-1723]
Result: 62
